Numbers sourced from PubChem BioAssay (NCI).

Tested on: HCT-116 colon
Experiment: NCI-60 one-dose screen, 48 h
Conditions: 10 µM unless noted
Compounds without any hit were thinned out: in the full panel of roughly 83,000, 20% have a hit. Activity calls are given as the source filed them. How the source made its calls: active means growth percent below 10; inactive means the rest.
Return exactly one item of active, inactive

Observe how each entry below is paired with its result.
{"Compound": "O=C(Nc1ccc(-n2cc(-c3ccncc3)c(-c3ccc(Cl)c(O)c3)n2)cc1)c1cc(C(F)(F)F)cc(C(F)(F)F)c1", "Class Label": "inactive"}
{"Compound": "CCOC(=O)c1c2c(cn1Cc1ccccc1)-c1oncc1CC2", "Class Label": "inactive"}
{"Compound": "CC(C)CCCCCOC(=O)c1ccccc1SSc1ccccc1C(=O)OCCCCCC(C)C", "Class Label": "inactive"}
{"Compound": "CCC(C)(CC)c1ccc(O)c(C)c1", "Class Label": "inactive"}
{"Compound": "COc1ccc(/C=C2\\CCCC3=C2N=C2SC=NN2C3c2ccc(OC)c(OC)c2)cc1OC (configuration not stated)", "Class Label": "active"}

Any idea what this test logged for COc1ccc(-c2nnc(SCC(=O)Nc3ccc(C(=O)/C=C/c4cc(OC)c(OC)c(OC)c4)cc3)n2-c2ccccc2)cc1OC ?
active

Any idea what this test logged for c1cc[c]([Bi]([c]2ccccc2)[c]2ccccc2)cc1 ?
inactive

Any idea what this test logged for CN1CCN(Cc2ccc(NC(=O)c3ccc(C#Cc4c(N)ncc5ccc(F)cc45)cc3)cc2C(F)(F)F)CC1 ?
active

Any idea what this test logged for COc1ccc2c(c1)/C(=C1/S/C(=N/c3nnc(C)s3)NC1=O)C(=O)N2Cc1ccc(Br)cc1 ?
inactive
